All values here come from patent US20250042957A1.

In this section, each of the binders is paired with its reported Kd.
assaySystem: TargetA
measurementDescription: SPR, bio-TargetA coated on NAD chip, DARPin 333.33-4.11 nM
In your response, the unit should come after the numeric value.

binder="Parent DARPin no 4 (SEQ ID NO: 88) (designed binder) DLGKKLLQAARAGQLDEVRELLKAGADVNAKDSQGRTPLHLAAFAGHLEIVEVLLKAGADVNAKDHAGWTPLHLAAYAGHLEIVEVLVKAGADVNAKDTEGKTPLHIAAWFGHLEIVEVLLKAGADVNAQDKSGKTPADLTARAGHQDIAEVLQKAA" attributemeasured=Kd result="0.16 nM"
binder="2-in-1 DARPin 23 (SEQ ID NO: 92) (designed binder) DLGKKLLQAARAGQLDEVRELLKAGADVNAKDSQGRTPLHLAAFAGHLEIVEVLLKAGADVNAKDHAGWTPLHLAAYAGHLEIVEVLVKAGADVNAKDTEGKTPLHIAAWFGHLEIVEVLLKAGADVNAKDKSGQTPLHLAAWAGHLEIVEVLLKAGADVNAKNSRGWTPLHTAAQTGHLEIFEVLLKAGADVNAKNDKRVTPLHLAAALGHLEIVEVLLKAGADVNARDSWGTTPADLAAKYGHQDIAEVLQKAA" attributemeasured=Kd result="0.024 nM"

Next, consider the following binder.
Q: Indicate its recorded Kd; the binder in question is 2-in-1 DARPin 25 (SEQ ID NO: 94) (designed binder) DLGKKLLQAARAGQLDEVRELLKAGADVNAKDSQGRTPLHLAAFAGHLEIVEVLLKAGADVNAKDHAGWTPLHLAAYAGHLEIVEVLVKAGADVNAKDTEGKTPLHIAAWFGHLEIVEVLLKAGADVNAKDKSGKTPLHLAARAGHLEIVEVLLKAGADVNAKDNSGQTPLHLAAWAGHLEIVEVLLKAGADVNAKNSRGWTPLHTAAQTGHLEIFEVLLKAGADVNAKNDKRVTPLHLAAALGHLEIVEVLLKAGADVNARDSWGTTPADLAAKYGHQDIAEVLQKAA
A: 0.018 nM
